The measured values listed here are drawn from patent US20130267494A1.

Target: human norepinephrine transporter (Homo sapiens, UniProt P23975)
Construct: expressed in transfected cells
Sequence (P23975 whole entry): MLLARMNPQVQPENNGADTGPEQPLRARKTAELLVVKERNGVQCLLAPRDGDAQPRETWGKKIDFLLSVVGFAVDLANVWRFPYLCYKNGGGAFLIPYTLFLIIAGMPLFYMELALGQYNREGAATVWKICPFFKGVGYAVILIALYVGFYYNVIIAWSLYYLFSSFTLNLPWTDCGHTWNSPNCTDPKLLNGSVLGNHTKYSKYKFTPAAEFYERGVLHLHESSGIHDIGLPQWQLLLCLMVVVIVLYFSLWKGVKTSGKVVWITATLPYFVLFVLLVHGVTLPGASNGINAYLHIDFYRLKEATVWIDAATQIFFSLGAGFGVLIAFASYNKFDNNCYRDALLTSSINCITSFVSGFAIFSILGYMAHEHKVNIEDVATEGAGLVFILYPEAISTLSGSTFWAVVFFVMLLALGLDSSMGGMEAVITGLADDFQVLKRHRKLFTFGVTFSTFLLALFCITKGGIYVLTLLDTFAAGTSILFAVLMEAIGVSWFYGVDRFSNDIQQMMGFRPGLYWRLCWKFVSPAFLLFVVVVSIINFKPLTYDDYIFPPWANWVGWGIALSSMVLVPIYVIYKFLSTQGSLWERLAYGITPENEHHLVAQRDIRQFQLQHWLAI
Assay: Inhibitory action on human norepinephrine transporter ([3H]-norepinephrine uptake in CHO cells)
Format: cell-based
Details: CHO, compound 10 μM; relative to inhibitory activity of 10 μM DMI as 100%; read-out: inhibitory rate (%)
Counter-ions that a name gives are not always drawn.
Value kind: inhibition at 10 µM (%)

[
  {
    "Compound": "NS(=O)(=O)NCC1(c2ccc(Cl)c(Cl)c2)CCNCCO1 (racemic) [Example 22, monohydrochloride]",
    "Target system": "human norepinephrine transporter (Homo sapiens, UniProt P23975)",
    "Result number": 99
  },
  {
    "Compound": "CS(=O)(=O)NCC1(c2ccc(Cl)c(Cl)c2)CNCCCO1 (racemic) [Example 24, monohydrochloride]",
    "Target system": "human norepinephrine transporter (Homo sapiens, UniProt P23975)",
    "Result number": 99
  },
  {
    "Compound": "OC[C@H]1OCCNC[C@H]1c1ccc(Cl)c(Cl)c1 (racemic) [Example 25, monohydrochloride]",
    "Target system": "human norepinephrine transporter (Homo sapiens, UniProt P23975)",
    "Result number": 100
  },
  {
    "Compound": "CS(=O)(=O)C[C@H]1CNCCOC1c1ccc(F)c(Cl)c1 (mixture of isomers) [Example 12, monohydrochloride]",
    "Target system": "human norepinephrine transporter (Homo sapiens, UniProt P23975)",
    "Result number": 100
  },
  {
    "Compound": "COC1(c2ccc(Cl)c(Cl)c2)CNCCOC1 (racemic) [Example 17, monohydrochloride]",
    "Target system": "human norepinephrine transporter (Homo sapiens, UniProt P23975)",
    "Result number": 97
  }
]

###

Biological target: human dopamine transporter (Homo sapiens, UniProt Q01959)
Construct: expressed in transfected cells
Sequence (Q01959 whole entry): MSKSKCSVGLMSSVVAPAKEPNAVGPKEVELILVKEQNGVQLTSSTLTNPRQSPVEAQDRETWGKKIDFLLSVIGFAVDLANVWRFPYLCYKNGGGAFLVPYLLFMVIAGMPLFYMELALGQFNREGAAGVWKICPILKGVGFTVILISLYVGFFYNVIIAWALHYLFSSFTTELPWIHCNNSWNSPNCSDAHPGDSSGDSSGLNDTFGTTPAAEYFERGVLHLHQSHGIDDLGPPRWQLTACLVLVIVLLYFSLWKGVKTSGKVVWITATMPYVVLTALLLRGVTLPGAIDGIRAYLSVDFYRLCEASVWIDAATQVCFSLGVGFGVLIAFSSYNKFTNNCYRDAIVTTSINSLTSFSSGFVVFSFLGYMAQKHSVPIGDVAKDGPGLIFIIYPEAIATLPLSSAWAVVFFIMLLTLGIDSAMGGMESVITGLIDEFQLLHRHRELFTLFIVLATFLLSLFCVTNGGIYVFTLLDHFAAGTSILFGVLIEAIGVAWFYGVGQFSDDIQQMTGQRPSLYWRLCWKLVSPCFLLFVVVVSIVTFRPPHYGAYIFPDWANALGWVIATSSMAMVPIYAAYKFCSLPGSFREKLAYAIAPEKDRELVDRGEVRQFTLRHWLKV
Test: Inhibitory action on human dopamine transporter ([3H]-dopamine uptake in CHO cells)
Type: cell-based
Details: CHO, compound 1 μM; relative to inhibitory activity of 100 μM Nomifensine as 100%; read-out: inhibitory rate (%)
Where a name gives a salt, the structure may show the parent alone.
Value kind: inhibition at 1 µM (%)

[
  {
    "Molecule": "CS(=O)(=O)C[C@H]1CNCCOC1c1ccc(F)c(Cl)c1 (mixture of isomers) [Example 12, monohydrochloride]",
    "inhibition at 1 µM [%]": 39
  }
]

[a] OCC(O)COC[C@@]1(c2ccc(Cl)c(Cl)c2)CCNCCO1 (some centres unmarked) [Example 417, monohydrochloride]
[b] CO[C@]1(CNS(C)(=O)=O)CNCCO[C@@H]1c1ccc(Cl)c(Cl)c1 (racemic) [Example 523, monohydrochloride]
For the pair a and b , which member has the lower inhibition at 1 µM number? When you have decided, please share the label of that item.
b

###

Target: human dopamine transporter (Homo sapiens, UniProt Q01959)
Construct: expressed in transfected cells
Assay: Inhibitory action on human dopamine transporter ([3H]-dopamine uptake in CHO cells)
Assay type: cell-based
Settings: CHO, compound 1 μM; relative to inhibitory activity of 100 μM Nomifensine as 100%; read-out: inhibitory rate (%)
Counter-ions that a name gives are not always drawn.
Value kind: inhibition at 1 µM (%)

[
  {
    "Compound": "O=C(Cn1cncn1)NC[C@@H]1OCCNC[C@@H]1c1ccc(Cl)c(Cl)c1 (racemic) [Example 457, monohydrochloride]",
    "inhibition at 1 µM [%]": 47
  },
  {
    "Compound": "OCCOC[C@H]1OCCNC[C@@H]1c1ccc(Cl)c(Cl)c1 (racemic) [Example 495, monohydrochloride]",
    "inhibition at 1 µM [%]": 42
  }
]

[a] O=C(O)c1ccnn(C[C@@H]2CNCCO[C@H]2c2ccc(Cl)c(F)c2)c1=O
[b] NS(=O)(=O)NC[C@@H]1CNCCO[C@H]1c1ccc(Cl)c(Cl)c1 [Example 35, monohydrochloride]
Pick one, a or b : lowest reported inhibition at 1 µM. Use the label to indicate which entry you chose.
a
(a: 38%, b: 63%)

###

Molecular target: human dopamine transporter (Homo sapiens)
Construct: expressed in transfected cells
Assay: Inhibitory action on human dopamine transporter ([3H]-dopamine uptake in CHO cells)
Format: cell-based
Conditions: CHO, compound 1 μM; relative to inhibitory activity of 100 μM Nomifensine as 100%; read-out: inhibitory rate (%)
Counter-ions that a name gives are not always drawn.
Value kind: inhibition at 1 µM (%)

Before answering, review these 5 worked examples.
[
  {
    "Molecule": "OC[C@H]1CNCCO[C@@H]1c1ccc(F)c(Cl)c1",
    "U": "%",
    "inhibition at 1 µM": 19
  },
  {
    "Molecule": "O=C1CN([C@@H]2CNCCO[C@H]2c2ccc(Cl)c(Cl)c2)C(=O)N1 [Example 276, monohydrochloride]",
    "U": "%",
    "inhibition at 1 µM": 94
  },
  {
    "Molecule": "O=c1[nH]c(-c2csc(C[C@@H]3CNCCO[C@H]3c3ccc(Cl)c(Cl)c3)n2)no1 [Example 199, monohydrochloride]",
    "U": "%",
    "inhibition at 1 µM": 66
  },
  {
    "Molecule": "O=c1[nH]c(-c2ncccc2O[C@@H]2CNCCO[C@H]2c2ccc(Cl)c(F)c2)no1",
    "U": "%",
    "inhibition at 1 µM": 57
  },
  {
    "Molecule": "CS(=O)(=O)NC[C@H]1CNCCO[C@@H]1c1ccc(F)c(Cl)c1 (racemic) [Example 293, monohydrochloride]",
    "U": "%",
    "inhibition at 1 µM": 31
  }
]

[a] OCCC[C@@H]1CNCCO[C@H]1c1ccc(Cl)c(Cl)c1 [Example 212, monohydrochloride]
[b] COC[C@@H]1OCCNC[C@@H]1c1ccc(Cl)c(Cl)c1 (racemic) [Example 449, monohydrochloride]
[c] Cc1cc(C2OCCNCC2CO)ccc1Cl (centres unmarked)
Please list these molecules in decreasing order of inhibition at 1 µM. Thanks in advance for listing the labels in the requested order.
a, b, c
(a: 94%, b: 58%, c: 17%)

###

Target: human serotonin transporter (Homo sapiens, UniProt P31645)
Construct: expressed in transfected cells
Sequence (P31645 whole entry): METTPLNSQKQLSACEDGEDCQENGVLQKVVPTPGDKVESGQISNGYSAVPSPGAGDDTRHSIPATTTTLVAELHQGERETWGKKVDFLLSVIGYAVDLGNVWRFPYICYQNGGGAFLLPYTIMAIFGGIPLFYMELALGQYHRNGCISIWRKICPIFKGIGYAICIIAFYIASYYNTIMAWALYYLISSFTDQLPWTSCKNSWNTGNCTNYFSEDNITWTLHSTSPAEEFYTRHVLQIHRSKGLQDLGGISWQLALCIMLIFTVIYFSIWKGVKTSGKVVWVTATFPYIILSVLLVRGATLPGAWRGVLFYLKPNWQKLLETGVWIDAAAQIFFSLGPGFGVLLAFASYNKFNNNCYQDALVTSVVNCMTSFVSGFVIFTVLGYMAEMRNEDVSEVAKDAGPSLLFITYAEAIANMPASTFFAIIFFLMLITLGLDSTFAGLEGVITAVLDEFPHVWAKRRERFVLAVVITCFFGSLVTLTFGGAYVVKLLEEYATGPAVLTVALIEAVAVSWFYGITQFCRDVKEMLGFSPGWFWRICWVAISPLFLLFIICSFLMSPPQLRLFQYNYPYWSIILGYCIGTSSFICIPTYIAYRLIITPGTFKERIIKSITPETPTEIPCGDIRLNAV
Assay: Inhibitory action on human serotonin transporter ([3H]-5-hydroxytryptamine uptake in CHO cells)
Assay type: cell-based
Conditions: CHO, compound 1 μM; relative to inhibitory activity of 10 μM Paroxetine as 100%; read-out: inhibitory rate (%)
Where a name gives a salt, the structure may show the parent alone.
Value kind: inhibition at 1 µM (%)

[
  {
    "Compound": "NC(=O)NC[C@@H]1CNCCO[C@H]1c1ccc(Cl)c(Cl)c1 [Example 152, monofumarate]",
    "inhibition at 1 µM (%)": 89
  },
  {
    "Compound": "OC[C@@H]1CNCCO[C@H]1c1ccc(F)c(Cl)c1 [Example 284, monofumarate]",
    "inhibition at 1 µM (%)": 34
  },
  {
    "Compound": "CS(=O)(=O)N[C@H]1CNCCO[C@@H]1c1ccc(Cl)c(Cl)c1 [Example 266, monohydrochloride]",
    "inhibition at 1 µM (%)": 82
  }
]

[P] COCC(=O)NC[C@@H]1CNCCO[C@H]1c1ccc(Cl)c(F)c1 [Example 38, monohydrochloride]
[Q] CNC(=O)N(CCO)C[C@@H]1CNCCO[C@H]1c1ccc(Cl)c(Cl)c1 [Example 160, monohydrochloride]
Select one. Lower inhibition at 1 µM: P or Q Choose, then provide that item's label.
P
(P: 69%, Q: 99%)

###

Target: human norepinephrine transporter (Homo sapiens)
Construct: expressed in transfected cells
Experiment: Inhibitory action on human norepinephrine transporter ([3H]-norepinephrine uptake in CHO cells)
Assay type: cell-based
Settings: CHO, compound 1 μM; relative to inhibitory activity of 10 μM DMI as 100%; read-out: inhibitory rate (%)
Counter-ions that a name gives are not always drawn.
Value kind: inhibition at 1 µM (%)

[
  {
    "Molecule": "O=C(CO)NC[C@@H]1OCCNC[C@H]1c1ccc(Cl)c(Cl)c1 [Example 507, monohydrochloride]",
    "U": "%",
    "inhibition at 1 µM": 104
  },
  {
    "Molecule": "OC[C@@H]1CNCCO[C@H]1c1ccc(Cl)c(F)c1 [Example 301, monohydrochloride]",
    "U": "%",
    "inhibition at 1 µM": 100
  },
  {
    "Molecule": "OC[C@H](O)[C@H]1OCCNC[C@H]1c1ccc(Cl)c(Cl)c1 [Example 578]",
    "U": "%",
    "inhibition at 1 µM": 99
  },
  {
    "Molecule": "O=C1CNC(=O)N1C[C@]1(c2ccc(Cl)c(Cl)c2)CCNCCO1 [Example 438, monohydrochloride]",
    "U": "%",
    "inhibition at 1 µM": 97
  },
  {
    "Molecule": "O=C(NC[C@@H]1CNCCO[C@H]1c1ccc(Cl)c(Cl)c1)c1cccc(-c2noc(=O)[nH]2)c1 [Example 142, monohydrochloride]",
    "U": "%",
    "inhibition at 1 µM": 100
  },
  {
    "Molecule": "CS(=O)(=O)C[C@@H]1CNCCO[C@@H]1c1ccc(Cl)c(Cl)c1 (racemic) [Example 50, monohydrochloride]",
    "U": "%",
    "inhibition at 1 µM": 98
  },
  {
    "Molecule": "O=C(CO)NC[C@@H]1CNCCO[C@H]1c1ccc(Cl)c(F)c1 [Example 315, monohydrochloride]",
    "U": "%",
    "inhibition at 1 µM": 105
  }
]
